Cited source: FireProtDB (doi:10.1093/protein/15.10.817)

B1: High mobility group protein B1, P63159 (parent)
chain: MGKGDPKKPRGKMSSYAFFVQTCREEHKKKHPDASVNFSEFSKKCSERWKTMSAKEKGKFEDMAKADKARYEREMKTYIPPKGETKKKFKDPNAPKRPPSAFFLFCSEYRPKIKGEHPGLSIGDVAKKLGEMWNNTAADDKQPYEKKAAKLKEKYEKDIAAYRAKGKPDAAKKGVVKAEKSKKKKEEEDDEEDEEDEEEEEEEEDEDEEEDDDDE

# Variants of: B1
# CONDITION DETAILS: Rattus norvegicus; pH 7; Thermal; CD; HEPES 10 mM; structure 1HME; whole UniProt chain shown
Collected Tm values appear next to each entry.
Enter the number, and then the unit.

Worked cases, answers included:
[[record]]
mutant_designation = "D140H"
measured_quantity = "Tm"
experimental_result = "38.2 °C"

[[record]]
mutant_designation = "S121H"
measured_quantity = "Tm"
experimental_result = "30.4 °C"

[[record]]
mutant_designation = "D139H"
measured_quantity = "Tm"
experimental_result = "41.1 °C"


Now for a further variant.
Quick one: Tm of "I122H" ?
36.2 °C
